# Test system: late erythroid cells (Eryth II)
# MEASUREMENT DESCRIPTION: MLTA, ErythII: concentration-response and QSP model fit
# Assay type: cell-based, human
# RECORDED CONDITIONS: Homo sapiens, 144 h; dose 500 nM, 6 days, normalized to vehicle control; read-out: ErythII normalized cell count
Classify as follows. Reported activity at 0.5 µM greater than or equal to 0.03%: 1. Reported activity at 0.5 µM below: 0.

Textbook exercise: given the entry `CCc1cnn2c(NCc3ccc[n+]([O-])c3)cc(N3CCCC[C@H]3CCO)nc12` , state whether its activity at 0.5 µM is greater than or equal to 0.03%.
0

---

# Tested on: neutrophils (neutrophil-lin)
# MEASUREMENT DESCRIPTION: MLTA, Neut: concentration-response and QSP model fit
# Type: cell-based, human
# RECORDED CONDITIONS: Homo sapiens, Neutrophil, 144 h; dose 100 nM, 6 days, normalized to vehicle control; read-out: Neut normalized cell count
RESULT TYPE: activity at 0.1 µM (%)
# value in %; strip the unit string

Which activity at 0.1 µM is reported for this molecule? O=C1CCC(N2C(=O)c3ccccc3C2=O)C(=O)N1 (centres unmarked) [thalidomide]
62.4

---

# Tested on: multi-potent progenitors (MPPs)
# MEASUREMENT DESCRIPTION: MLTA, MPPs: concentration-response and QSP model fit
# Format: cell-based, human
# RECORDED CONDITIONS: QSP model parameter, sheet EC50_parameters; MPPs
RESULT TYPE: EC50 (µM)
# value in µM; strip the unit string

COMPOUND: O=c1[nH]cc(F)c(=O)[nH]1 [5-FU]
EC50 (µM): 0.939

Kindly review the next compound as well.
Which EC50 is reported for this compound? Cc1c(-c2ccc(N3CCc4cccc(C(=O)Nc5nc6ccccc6s5)c4C3)nc2C(=O)O)cnn1CC12CC3CC(CC(C3)C1)C2 [A_1331852]
1

---

# Test system: multi-potent progenitors (MPPs)
# MEASUREMENT DESCRIPTION: MLTA, MPPs: concentration-response and QSP model fit
# Format: cell-based, human
# RECORDED CONDITIONS: Homo sapiens, 144 h; dose 1 nM, 6 days, normalized to vehicle control; read-out: MPPs normalized cell count
# Description: A custom optimized cytokine cocktail was developed using commercially available cytokines (Peprotech, New Jersey) to facilitate simultaneous multi-lineage differentiation and self-renewal of freeze-thawed primary human bone marrow-derived CD34+ cells in SFEM II media (cells and media from StemCell Technologies, Vancouver). […] Donor material was collected and cultured as described above. […] Following treatment, cell populations were measured using flow cytometry. […]
RESULT TYPE: activity at 0.001 µM
Mention the unit after the number when you answer.

MOLECULE: CC(=O)O[C@H]1C(=O)[C@@]2(C)[C@H]([C@H](OC(=O)c3ccccc3)[C@]3(O)C[C@H](OC(=O)[C@H](O)[C@@H](NC(=O)c4ccccc4)c4ccccc4)C(C)=C1C3(C)C)[C@]1(OC(C)=O)CO[C@@H]1C[C@@H]2O
RESULT: 90%

Kindly review the next molecule as well.
Which activity at 0.001 µM is reported for this molecule? `CCN1CCN(Cc2ccc(Nc3ncc(F)c(-c4cc(F)c5nc(C)n(C(C)C)c5c4)n3)nc2)CC1`
98.3%
